# test_summary: yeast display, Sf9 membrane polyspecificity reagent, FACS + sequencing; frameworks hold sequencing errors
quantity_name: polyreactivity (PSR sort gate)

QVQLVESGGGLVQAGGSLRLSCAASGITFAYYAMGWYRQAPGKERELVAAIRWSGGDTYYADSVKGRFTISRDNAKNTVYLQMNSLKPEDTAVYYCAADTTWGYDYWGQGTQVTVSS	low polyreactivity
QVQLVESGGGLVQAGGSLRLSSAASGYFNFFYAMGRYRQAPGKERELVASITYRGGSTYYADSVKGRFTLSRDNSKNTVYLQMNRLKPEDTAVYYCNVDGGGPLGPQGFPFDYWGQGTQVTVSS	low polyreactivity

====

# test_summary: yeast display, Sf9 membrane polyspecificity reagent, FACS + sequencing; frameworks hold sequencing errors
quantity_name: polyreactivity (PSR sort gate)

QVQLVESWGGLVQAGGSLRLSCAASGITFSNYAMGWYRQAPGKERELVAAISKRGGSTYYADSVKGRFTISRDTAKYTVYLQMNSLKPEDTAVYYCAAAGVRVYVRSVLDYWGQGTQVTVSS	high polyreactivity
QVQLVESGGGLVHAGGSLRLSCAASGRILGKYANGWYRQAPGKERELVAAINWRGGRTYADSVKGRFTISRDNSKNNVYLQMNSLKPEDTAVYYCAAVWQSPRPGYGYWGQGTQVTVSS	high polyreactivity
QVQLVESGGGLVQAGGSLRLSCAASGSTFIAYALGWYRQAPGKERELDAAITTGDSTNYADSVKGRFTISRDNAKNTVYLQMNSLKPEDTAVYYCNADGTDFHFLSEIGSSQEGDYWGQGTQVTVSS	low polyreactivity
QVQLVESGGGLVQAGGSLRLSCAASGTTFRFYAMGLYRQAPGKERELDAAINGSGGSTYYADSVKGRFTISRDNAKNTVYFQMISMKPEDTAVYYCAADGVPDALDRDYWGQGTQVNVSS	low polyreactivity
QVQHVESGGGIVQAGGSLRLSCAASGGIFGYYAMGWYRQAPGKEREFVATITRGGGSTYYADSVKGRFTISRDNAKNTVYLQMNSLKPEDSAVYYCNAKPSYYQRYIYWGQGTQVTVSS	high polyreactivity

====

# test_summary: yeast display, Sf9 membrane polyspecificity reagent, FACS + sequencing; frameworks hold sequencing errors
quantity_name: polyreactivity (PSR sort gate)

QDQLVESGGGLVQAGGSLRLSCASYGSTFGANAMGWYRQAHGKARELVATISSGGRTYYADSVKGRFTISRDNAKITVYLQMNSLKPEDTAVYYCNAGADYTYVYISVYVLYDYLGQGTQVTVSS	low polyreactivity
QVQLVESGGGIVQAGGSLRLSCAASGFIFRYYVMGSYRQAPGKERELVASISRSGTSTYYADSVKGRFTISRDNAKNTVYLQMNSLKPEDTAVYYCAKGVGRGFGSATGYYWGQGTQVTVSS	high polyreactivity
QVQLLESGGGLVQAGGSLRLSCAPSGFTYRYNAMVWYRQAPGIERELVAAISSRGGSTYYADSVKGRFTISRDNAKNTVYFQMNSLKPEDTGVYYCARDDWVYTNVEMDYWGQGTQVTVSS	high polyreactivity
QVQLVESGGGLVQAGGSLRLSCAASGYIFYYYAMGWYRQAPGKERELVAAISSGGSTSYADSVKGRFTISRDNAKNTVYLQMNSLKPEDTAVYYCAAYKPWYVGLYPWYDYWGQGTQVTVSS	low polyreactivity
QVQLVESGGGLVQAGGSLRLTCAASGSTFQTYVMGLYIQAPGKERELVAAISSGGSTNYADSVKGRFTISRDNAKNNVYLLMKSLKPEDTAVYYCAAVYWAWGKNEYEYWGQGTQVTVSS	low polyreactivity
QVQLVESGGGLVQAGGSLRLSCAASGRIFGLNAMGWYRQAPGKERELVAAIDRSGASTYYADSVKGRFTISRDNAKNTVYLQMNSLKPEDTAVYYCAAESYLSGEEYDYWGQGTQVTVSS	high polyreactivity
QVQLVESGGGLVQAGGSLRLSCAASGIIFRYNAMGWSRQAPGKERELVATISKRGGSTRYADSVKGRFTISRDNAKNTVYLQMNSLKPEDTAVYYCAAQRPYYNGYDYWGQGTQVTVSS	high polyreactivity
QVQLVESGGGLVQAGGSLRISCAASGRIFYYYDMGWYRQAPGKERELVAAISRSGGRTYYADSVKGRFTISRDNANNTVYLHMNSLKPEDTAVYYCNVVRQGGTLGYDYWGQGTQVTVSS	high polyreactivity
QVQLVESGGGLVQAGGSLRLSCAASGRIYARNAMGWYIQAPGKERELVAAITRGGSTYYADSVKGRFTISRDNAKNTVYLQMNSLKPEDTAVYYCAASYRGSTYKYYYWGQGTQVTVSS	high polyreactivity
QVQLVESVGGLVQAGGSLRLSCAASGNTFSLYAMGWYSQAPGKERELVAAITWITGSTDYADSVKGRFTISRDNAKNTVYLQMNSLKPEDTAVYYCAADGDFSWFYSYETGWIEYDYCGQGTQVTVSS	low polyreactivity
QVQLVESGGGLVQAGGSLRLSCAASGFILSFYTMGWYRQEPGKERELVAVISSRGGRTYYADSVKGRFTISRDNAKNTVYLQMNSLKPEDTAVYYCNKRYYFPKPFDYWGQGTQVTVSS	high polyreactivity
